- protocolSummary: H69AR cell proliferation blockers – human, duplicate replicates, primary screen (AID 580);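 further: 100% = mean luminescence of untreated wells and 0% = no signal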
- conditionParameters: H69AR lung tumor cells viability, ATP luminescence, 72 h; at 10 µM; stronger effect = lower value
Provide the recorded viability for the entries that follow.
Answers are plain numbers, in %.

Examples with answers:
compound: COc1c(S(=O)(=O)n2nc(C)cc2C)ccc(Cl)c1Cl
valueUnits: %
viability: 98
//
compound: CCCCc1cc2c(c(NC(C)=O)n1)c(=O)oc1ccccc12
valueUnits: %
viability: 77.9
//
compound: CCOc1cccc(C(=O)N2CCCCC2c2cccnc2)c1 (stereo not given)
valueUnits: %
viability: 110
//
compound: CCOC(=O)Cn1nc(-c2ccc(Cl)cc2)cc1N
valueUnits: %
viability: 101

Let's switch to this compound now.
Ask: Given the entry Cc1ccc(CSc2nc3c(c(=O)[nH]2)CCC3)cc1 , report its measured viability.
Result: 93.1
